# System: HeLa
# procedureText: Antiproliferative activity against human HeLa cells assessed as [methyl-3H]thymidine incorporation after 16 hrs by XTT assay
# Assay type: functional, cell-based
pIC50: −log10 of the molar value.
Listed next: entries and their corresponding pIC50.

INPUT: Recall the recorded pIC50 for Sc1ncnc2nc[nH]c12 [MERCAPTOPURINE ANHYDROUS] with HeLa and state it.
OUTPUT: < 3.70

--- query ---
INPUT: Recall the recorded pIC50 for C=CCSSc1ncnc2c1ncn2[C@H]1O[C@@H](CO)[C@H](O)[C@@H]1O with HeLa and state it.
OUTPUT: < 3.70

* * *

Listed next: entries and their corresponding pIC50.
# Tested on: U-937
# procedureText: Antiproliferative activity against human U937 cells assessed as [methyl-3H]thymidine incorporation after 16 hrs by XTT assay
# Format: functional, cell-based
# measurementSetup: U-937, 16 h
Notebook: values listed as pIC50 are -log10 of the concentration (mol/L).

INPUT: Need pIC50 of C=CCSSc1ncnc2c1ncn2[C@H]1O[C@@H](CO)[C@H](O)[C@@H]1O , thanks.
OUTPUT: 3.95

INPUT: Now consider C=CCS[S+]([O-])CC=C (stereo not given) [ALLICIN] .
OUTPUT: 4.71

INPUT: Now consider C=CCSSc1ncnc2nc[nH]c12 .
OUTPUT: 4.33
